Tested on: TDF
assay info: H1.0 immunofluorescence intensity relative to DMSO (% of DMSO); higher = stronger H1.0 induction, active = 120 or more
experimental setup: concentration: 10 µM; 24 h
I would appreciate it if you answered using one of these outcomes: active, inactive

Study these solved cases before continuing.
# molecule, class label
records = [
    ("COc1ncnc(NS(=O)(=O)c2ccc(N)cc2)c1OC", "inactive"),
    ("CC12CCC3c4ccc(O)cc4CC(CCCCCCCCCS(=O)CCCC(F)(F)C(F)(F)F)C3C1CCC2O (stereo not drawn)", "inactive"),
    ("CCCCCCCCC=CCCCCCCCC(=O)NCCc1ccc(O)c(O)c1", "inactive"),
    ("Nc1nc(OCc2ccccc2)c2[nH]cnc2n1", "inactive"),
]

Query: How was CC(C)(C)C1(O)CCN2CC3c4ccccc4CCc4cccc(c43)C2C1.Cl (single isomer, unassigned; (+)) [(+)-Butaclamol hydrochloride] classified in this test?
Response: active

Query: How was CCCCCC(O)C=CC1C(O)CC(O)C1CC=CCCCC(=O)O (stereo not drawn) [9a,11b Prostaglandin F2] classified in this test?
Response: inactive

Query: How was COc1ccc2cc(OCC3(C(=O)O)CN(C(=O)c4ccc(F)cc4)C3)ccc2c1 classified in this test?
Response: inactive

Query: How was O=C(Nc1cccc2c(=O)cc(-c3nn[nH]n3)oc12)c1ccc(OCCCCc2ccccc2)cc1 classified in this test?
Response: inactive

Query: How was c1ccc(CNc2nc(NCc3ccccc3)c3ccccc3n2)cc1 classified in this test?
Response: active

----------
Test system: TDF
assay info: cell number relative to DMSO (% of DMSO); higher = more cells (less growth inhibition / toxicity)
experimental setup: concentration: 10 µM; 24 h
Kindly state cell number for each of the entries shown.
Answers are plain numbers.

Please give cell number, item by item, for the list that follows.
1. CC1=C(C(=O)O)N2C(=O)C(NC(=O)C(N)c3ccccc3)C2SC1 (stereo unspecified) [Cephalexin hydrate]
2. COC1C=COC2(C)Oc3c(C)c(O)c4c(O)c(cc([O-])c4c3C2=O)NC(=O)C(C)=CC=CC(C)C(O)C(C)C(O)C(C)C(OC(C)=O)C1C.[Na+] (stereo unspecified)
3. CCCCCC1OC1CC=CCC=CCC=CCCCC(=O)O (stereo unspecified)
4. COc1cc2ccccc2cc1C(=O)OC(C)C(=O)NCc1ccc(F)cc1 (stereo unspecified)
5. COc1cc2c3cc1Oc1cc(ccc1O)CC1c4c(cc(OC)c(O)c4Oc4ccc(cc4)CC3N(C)CC2)CC[N+]1(C)C.Cl.[Cl-] (single isomer, unassigned; (+)) [(+)-Tubocuraraine chloride]

Response:
1: 111; 2: 101; 3: 112; 4: 107; 5: 109

Query: What cell number appears in the records for this molecule with TDF? C[N+]1(C)C2CC(OC(=O)C(O)(c3cccs3)c3cccs3)CC1C1OC12.[Br-] (stereo unspecified) [Tiotropium Bromide]
Response: 97.1

----------
Kindly state cell number for each of the entries shown.
Test system: TDF
assay info: cell number relative to DMSO (% of DMSO); higher = more cells (less growth inhibition / toxicity)
experimental setup: concentration: 10 µM; 24 h
Numbers only.

Some compounds with recorded cell number:
# compound, cell number
data = [
    ("Cn1c(=O)c2[nH]c(-c3ccc(S(=O)(=O)O)cc3)nc2n(C)c1=O [8-(p-Sulfophenyl)theophylline]", 109),
    ("CCCCCCCCCCCCCCCCn1cc[n+](Cc2ccccc2)c1C.[I-]", 103),
    ("NC(N)=NC(=O)c1nc(Cl)c(N)nc1N [Amiloride]", 103),
]

Pending compound:
Query: Endpoint output: cell number of CC(=O)OC1(C(C)=O)CCC2C3C=C(Cl)C4=CC(=O)C5CC5C4(C)C3CCC21C (centres undefined) [Cyproterone acetate] . Value?
Response: 99.8
